molecular target: UniProtKB P34976; experiment: In vitro inhibition of ATII induced contractions of the isolated rabbit aorta.
Sequence (P34976 whole entry): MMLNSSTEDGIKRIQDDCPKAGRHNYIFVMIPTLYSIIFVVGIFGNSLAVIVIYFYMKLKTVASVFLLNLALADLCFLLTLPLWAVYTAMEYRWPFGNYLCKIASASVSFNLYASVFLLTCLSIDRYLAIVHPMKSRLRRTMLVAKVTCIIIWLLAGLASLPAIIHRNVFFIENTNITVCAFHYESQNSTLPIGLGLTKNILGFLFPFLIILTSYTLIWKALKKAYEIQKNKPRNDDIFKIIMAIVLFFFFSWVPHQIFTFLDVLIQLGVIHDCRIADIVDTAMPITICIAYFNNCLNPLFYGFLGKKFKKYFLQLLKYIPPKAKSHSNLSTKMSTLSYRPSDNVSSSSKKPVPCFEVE
quantityKind: pKB

>>> print(df.to_string())
                            substancesmiles  quantitykind  recordedmeasurement
0  CCCCc1nn(CCC)c(C(=O)O)c1Cc1ccc(-c2ccccc2-c2nn[nH]n2)cc1           pKB                 10.5
1  CCCCc1nn(CC)c(C(=O)O)c1Cc1ccc(-c2ccccc2NS(=O)(=O)C(F)(F)F)cc1           pKB                    8
2  CCCCc1nn(CCCC)c(C(=O)O)c1Cc1ccc(-c2ccccc2-c2nn[nH]n2)cc1           pKB                   10
